Numbers sourced from patent US9029366B2.

Quick reference for EC50 among some molecules
target.entity: human mGluR5 (Homo sapiens)
protocol.summary: Cell-based functional Ca2+ mobilization assay (FDSS), potentiation of glutamate EC20 response, HEK293A cells transfected with human mGluR5a (H10H or H12H cell line)
measurement.conditions: H10H cell line expressing recombinant human mGluR5; in presence of glutamate EC20; ** = compound is an antagonist; read-out: pEC50 (converted)
Numeric answer only, unit µM assumed.

Some solved cases for reference:
# molecule, reported.result
measured = [
    ("O=C(c1ccncc1)N1CCn2nc(OCc3ccccc3)cc2C1", 1.86),
    ("O=C(c1ccc(F)cc1)N1CCn2nc(OCc3ccc(F)cc3)cc2C1", 0.479),
    ("O=C(c1cccc(Cl)c1)N1CCn2nc(OCc3ccc(F)cc3)cc2C1", 0.38),
    ("O=C(c1ccc(Cl)cc1)N1CCn2nc(OCc3ccccc3)cc2C1", 0.269),
    ("Cc1ccc(C(=O)N2CCn3nc(OCc4ccccc4)cc3C2)o1", 0.562),
]

Fill blank: measured EC50 of the molecule O=C(C1CC1c1ccccc1)N1CCn2nc(OCc3ccccc3)cc2C1 (stereo not shown) is ____.
2.34

Do the same for "Cc1ccc(C(=O)N2CCn3nc(OCc4ccccc4)cc3C2)cn1" please
3.89

###

Quick reference for Emax among some compounds
target.entity: human mGluR5 (Homo sapiens, UniProt P41594)
Sequence (P41594 21-1180 isoform P41594-2 limits assumed): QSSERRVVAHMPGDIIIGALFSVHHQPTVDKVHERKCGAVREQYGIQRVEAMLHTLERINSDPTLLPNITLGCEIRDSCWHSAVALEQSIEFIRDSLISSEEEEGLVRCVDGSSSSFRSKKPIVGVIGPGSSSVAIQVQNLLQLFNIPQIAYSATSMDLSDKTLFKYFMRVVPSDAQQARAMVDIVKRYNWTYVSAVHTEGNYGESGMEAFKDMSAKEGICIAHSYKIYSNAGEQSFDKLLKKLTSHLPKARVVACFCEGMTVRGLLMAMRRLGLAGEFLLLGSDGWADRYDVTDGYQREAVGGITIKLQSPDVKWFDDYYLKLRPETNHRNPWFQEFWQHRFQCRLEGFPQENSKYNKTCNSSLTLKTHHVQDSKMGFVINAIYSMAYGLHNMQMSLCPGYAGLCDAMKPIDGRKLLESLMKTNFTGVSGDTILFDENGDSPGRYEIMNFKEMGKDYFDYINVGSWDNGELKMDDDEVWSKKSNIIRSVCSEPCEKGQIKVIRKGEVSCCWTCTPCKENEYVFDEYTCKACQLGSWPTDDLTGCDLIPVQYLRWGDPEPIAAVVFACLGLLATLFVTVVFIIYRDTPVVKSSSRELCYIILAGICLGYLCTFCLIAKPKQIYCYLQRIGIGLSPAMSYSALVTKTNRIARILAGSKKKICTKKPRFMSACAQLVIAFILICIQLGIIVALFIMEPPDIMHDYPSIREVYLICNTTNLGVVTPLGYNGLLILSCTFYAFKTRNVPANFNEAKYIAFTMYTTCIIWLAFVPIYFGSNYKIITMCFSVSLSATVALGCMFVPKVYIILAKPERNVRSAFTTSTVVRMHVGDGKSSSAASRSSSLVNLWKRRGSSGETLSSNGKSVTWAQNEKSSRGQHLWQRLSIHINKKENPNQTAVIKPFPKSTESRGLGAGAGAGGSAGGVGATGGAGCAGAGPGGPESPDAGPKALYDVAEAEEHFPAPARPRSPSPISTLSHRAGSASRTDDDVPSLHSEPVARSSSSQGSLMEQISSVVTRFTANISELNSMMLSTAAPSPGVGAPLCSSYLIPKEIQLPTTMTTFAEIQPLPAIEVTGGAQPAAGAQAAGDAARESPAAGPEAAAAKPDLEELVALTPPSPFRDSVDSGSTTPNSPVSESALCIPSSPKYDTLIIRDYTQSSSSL
protocol.summary: Cell-based functional Ca2+ mobilization assay (FDSS), potentiation of glutamate EC20 response, HEK293A cells transfected with human mGluR5a (H10H or H12H cell line)
measurement.conditions: HEK293-A, H10H cell line expressing recombinant human mGluR5; in presence of glutamate EC20; % of maximal glutamate response; ** = compound is an antagonist
Numeric answer only, unit % assumed.

# compound, Emax [%]
records = [
    ("O=C(c1cc(F)cc(F)c1)N1CCn2nc(OCc3cccc(F)c3)cc2C1", 25),
    ("O=C(c1ncccc1Cl)N1CCn2nc(OCc3ccccc3)cc2C1", 27),
    ("Cn1ccc(COc2cc3n(n2)CCN(C(=O)c2ccc(F)cc2)C3)cc1=O", 28),
    ("N#Cc1cccc(COc2cc3n(n2)CCN(C(=O)c2cc(F)cc(F)c2)C3)c1", 15),
    ("O=C(c1c[nH]c2ccccc12)N1CCn2nc(OCc3ccccc3)cc2C1", 71),
]

Fill blank: measured Emax of the compound "O=C(c1ccccc1F)N1CCn2nc(OCc3ccccc3F)cc2C1" is ____.
71

Do the same for "O=C(CC1CCCC1)N1CCn2nc(OCc3ccccc3)cc2C1" please
52

Do the same for "O=C(c1ncc(F)cc1F)N1CCn2nc(OCc3ccccc3)cc2C1" please
56

Do the same for "O=C(c1ccc(F)cc1)N1CCn2nc(OCc3ccccc3F)cc2C1" please
64

Do the same for "O=C(c1cc(F)cc(F)c1)N1CCn2nc(OCc3ccccc3)cc2C1" please
44.5

Do the same for "O=C(c1cc(F)ccc1F)N1CCn2nc(OCc3ccccc3)cc2C1" please
72

Do the same for "Cn1c(Cl)ccc1C(=O)N1CCCn2nc(OCc3ccccc3)cc2C1" please
74

###

target.entity: human mGluR5 (Homo sapiens)
protocol.summary: Cell-based functional Ca2+ mobilization assay (FDSS), potentiation of glutamate EC20 response, HEK293A cells transfected with human mGluR5a (H10H or H12H cell line)
measurement.conditions: H10H cell line expressing recombinant human mGluR5; in presence of glutamate EC20; ** = compound is an antagonist; read-out: pEC50 (converted)
Quick reference for EC50 among some molecules

# smiles.input, EC50
measured = [
    ("O=C(c1ccccc1Cl)N1CCn2nc(OCc3ccccc3)cc2C1", "95.5 nM"),
    ("C[C@@H]1Cn2nc(OCc3ccccc3)cc2CN1C(=O)c1ccc(F)cc1", "813 nM"),
    ("Cc1ccc(COc2cc3n(n2)CCN(C(=O)c2ccc(F)cc2)C3)cc1", "> 30200 nM"),
]

Entry "Cn1c(Cl)ccc1C(=O)N1CCn2nc(OCc3ccccc3)cc2C1" , system human mGluR5 (Homo sapiens): what EC50 was measured?
25.1 nM

Do the same for "Cn1ccc(COc2cc3n(n2)CCN(C(=O)c2ccc(F)cc2)C3)cc1=O" please
> 30200 nM

Do the same for "O=C(c1ccnc(F)c1)N1CCn2nc(OCc3ccccc3)cc2C1" please
891 nM

Do the same for "N#Cc1cccc(COc2cc3n(n2)CCN(C(=O)c2ccccc2)C3)c1" please
66.1 nM

Do the same for "O=C(c1cc(F)cc(F)c1)N1CCn2nc(OCc3ccccc3F)cc2C1" please
224 nM

Do the same for "O=C(c1cc[nH]n1)N1CCn2nc(OCc3ccccc3)cc2C1" please
2000 nM
